All values here come from ChEMBL document CHEMBL1132712.

- test-details: Rate data in phosphate buffer at pH 2.0
- Format: ADME
assay-metric: half-life (h)
Kindly answer with a numeric value in h, unit omitted.

Returns the measured half-life for the input compound. Input: O=C(OP(=O)([O-])C(Cl)(Cl)P(=O)([O-])OC(=O)c1ccccc1)c1ccccc1.[Na+].[Na+] 286

Returns the measured half-life for the input compound. Input: CC(C)(C)C(=O)OP(=O)([O-])C(Cl)(Cl)P(=O)([O-])OC(=O)C(C)(C)C.[Na+].[Na+] 8.6

Returns the measured half-life for the input compound. Input: CC(=O)OP(=O)([O-])C(Cl)(Cl)P(=O)([O-])OC(C)=O.[Na+].[Na+] 0.75

Returns the measured half-life for the input compound. Input: CCCC(=O)OP(=O)([O-])C(Cl)(Cl)P(=O)([O-])OC(=O)CCC.[Na+].[Na+] 0.817

====

- test-details: Rate data in phosphate buffer at pH 7.4
- Type: ADME
Consider the following molecules; for each one, report its half-life.
Kindly answer with a numeric value in h, unit omitted.

Returns the measured half-life for the input molecule. Input: O=C(OP(=O)([O-])C(Cl)(Cl)P(=O)([O-])OC(=O)c1ccccc1)c1ccccc1.[Na+].[Na+] 235

Returns the measured half-life for the input molecule. Input: CC(C)(C)C(=O)OP(=O)([O-])C(Cl)(Cl)P(=O)([O-])OC(=O)C(C)(C)C.[Na+].[Na+] 790

Returns the measured half-life for the input molecule. Input: CCCC(=O)OP(=O)([O-])C(Cl)(Cl)P(=O)([O-])OC(=O)CCC.[Na+].[Na+] 31.3

Returns the measured half-life for the input molecule. Input: CC(=O)OP(=O)([O-])C(Cl)(Cl)P(=O)([O-])OC(C)=O.[Na+].[Na+] 15.2

====

- test-details: The aqueous solubility in phosphate buffer
- Format: physicochemical
- details: read-out: S
assay-metric: solubility (mg/mL)
Kindly answer with a numeric value in mg/mL, unit omitted.

Returns the measured solubility for the input compound. Input: CCCC(=O)OP(=O)([O-])C(Cl)(Cl)P(=O)([O-])OC(=O)CCC.[Na+].[Na+] 172

Returns the measured solubility for the input compound. Input: O=C(OP(=O)([O-])C(Cl)(Cl)P(=O)([O-])OC(=O)c1ccccc1)c1ccccc1.[Na+].[Na+] 6

Returns the measured solubility for the input compound. Input: CC(=O)OP(=O)([O-])C(Cl)(Cl)P(=O)([O-])OC(C)=O.[Na+].[Na+] 190

Returns the measured solubility for the input compound. Input: CC(C)(C)C(=O)OP(=O)([O-])C(Cl)(Cl)P(=O)([O-])OC(=O)C(C)(C)C.[Na+].[Na+] 23.5

====

- test-details: The apparent partition coefficient at pH 7.4
- Format: physicochemical
- details: octanol/water
assay-metric: logD
Field format: numeric only.

Returns the measured logD for the input molecule. Input: CCCC(=O)OP(=O)([O-])C(Cl)(Cl)P(=O)([O-])OC(=O)CCC.[Na+].[Na+] -2.3

Returns the measured logD for the input molecule. Input: CC(C)(C)C(=O)OP(=O)([O-])C(Cl)(Cl)P(=O)([O-])OC(=O)C(C)(C)C.[Na+].[Na+] -2.3

Returns the measured logD for the input molecule. Input: CC(=O)OP(=O)([O-])C(Cl)(Cl)P(=O)([O-])OC(C)=O.[Na+].[Na+] -2.2

Returns the measured logD for the input molecule. Input: O=C(OP(=O)([O-])C(Cl)(Cl)P(=O)([O-])OC(=O)c1ccccc1)c1ccccc1.[Na+].[Na+] -2.3

====

- test-details: Rate data in phosphate buffer at pH 2.0
- Type: ADME
assay-metric: K obs (min⁻¹)
Kindly answer with a numeric value in min⁻¹, unit omitted.

Returns the measured K obs for the input compound. Input: CC(C)(C)C(=O)OP(=O)([O-])C(Cl)(Cl)P(=O)([O-])OC(=O)C(C)(C)C.[Na+].[Na+] 0.0013

Returns the measured K obs for the input compound. Input: CCCC(=O)OP(=O)([O-])C(Cl)(Cl)P(=O)([O-])OC(=O)CCC.[Na+].[Na+] 0.014

Returns the measured K obs for the input compound. Input: O=C(OP(=O)([O-])C(Cl)(Cl)P(=O)([O-])OC(=O)c1ccccc1)c1ccccc1.[Na+].[Na+] 0.00004

Returns the measured K obs for the input compound. Input: CC(=O)OP(=O)([O-])C(Cl)(Cl)P(=O)([O-])OC(C)=O.[Na+].[Na+] 0.016

====

Consider the following molecules; for each one, report its K obs.
- test-details: Rate data in phosphate buffer at pH 7.4
- Format: ADME
Reply with the number, then its unit.

Returns the measured K obs for the input molecule. Input: CC(=O)OP(=O)([O-])C(Cl)(Cl)P(=O)([O-])OC(C)=O.[Na+].[Na+] 0.00076 min⁻¹

Returns the measured K obs for the input molecule. Input: O=C(OP(=O)([O-])C(Cl)(Cl)P(=O)([O-])OC(=O)c1ccccc1)c1ccccc1.[Na+].[Na+] 0.000049 min⁻¹

Returns the measured K obs for the input molecule. Input: CCCC(=O)OP(=O)([O-])C(Cl)(Cl)P(=O)([O-])OC(=O)CCC.[Na+].[Na+] 0.00037 min⁻¹

Returns the measured K obs for the input molecule. Input: CC(C)(C)C(=O)OP(=O)([O-])C(Cl)(Cl)P(=O)([O-])OC(=O)C(C)(C)C.[Na+].[Na+] 0.000015 min⁻¹

====

- test-details: The apparent partition coefficient at pH 2.0
- Assay type: physicochemical
- details: octanol/water
Consider the following compounds; for each one, report its logD.

Returns the measured logD for the input compound. Input: CCCC(=O)OP(=O)([O-])C(Cl)(Cl)P(=O)([O-])OC(=O)CCC.[Na+].[Na+] -1.9

Returns the measured logD for the input compound. Input: CC(C)(C)C(=O)OP(=O)([O-])C(Cl)(Cl)P(=O)([O-])OC(=O)C(C)(C)C.[Na+].[Na+] -2

Returns the measured logD for the input compound. Input: O=C(OP(=O)([O-])C(Cl)(Cl)P(=O)([O-])OC(=O)c1ccccc1)c1ccccc1.[Na+].[Na+] -1.5

Returns the measured logD for the input compound. Input: CC(=O)OP(=O)([O-])C(Cl)(Cl)P(=O)([O-])OC(C)=O.[Na+].[Na+] -1.4
